# Test system: transplanted paddy-field rice
# assay protocol: Test Example 1: crop injury against transplanted paddy-field rice
# Type: in vivo
# test settings: chemical dosage 25 g/a; wettable powder applied 3 days after transplanting; judged after 25 days
parameter: Crop injury against transplanted rice

Worked set:
Cc1ccc(C)c(Oc2nnc(Cl)cc2O)c1C; 0 (Growth inhibition rate; 0 to 10%)
CC(C)c1cccc(Br)c1Oc1nnc(Cl)cc1O; 1 (Growth inhibition rate; 11 to 30%)
CCc1ccccc1Oc1nnc(Cl)cc1O; 0 (Growth inhibition rate; 0 to 10%)
C=CCc1ccccc1Oc1nnc(Cl)cc1OC [Comparative compound, reference compound]; 0 (Growth inhibition rate; 0 to 10%)
Oc1cc(Cl)nnc1Oc1cccc2ccccc12; 0 (Growth inhibition rate; 0 to 10%)

Name the recorded Crop injury against transplanted rice of the item `CSc1c(C)cc(C)cc1Oc1nnc(Cl)cc1O` in your answer.
0 (Growth inhibition rate; 0 to 10%)

Name the recorded Crop injury against transplanted rice of the item `Cc1ccccc1Oc1nnc(Cl)cc1O` in your answer.
0 (Growth inhibition rate; 0 to 10%)

Name the recorded Crop injury against transplanted rice of the item `Cc1cc(Oc2nnc(Cl)cc2O)cc(C(C)C)c1` in your answer.
0 (Growth inhibition rate; 0 to 10%)
